Target: MvfR protein (MvfRC87) (Pseudomonas aeruginosa, UniProt Q9I4X0)
Construct: The MvfRC87 protein purified as in Xiao et. al., 2006; made in house
Sequence (Q9I4X0 87-332): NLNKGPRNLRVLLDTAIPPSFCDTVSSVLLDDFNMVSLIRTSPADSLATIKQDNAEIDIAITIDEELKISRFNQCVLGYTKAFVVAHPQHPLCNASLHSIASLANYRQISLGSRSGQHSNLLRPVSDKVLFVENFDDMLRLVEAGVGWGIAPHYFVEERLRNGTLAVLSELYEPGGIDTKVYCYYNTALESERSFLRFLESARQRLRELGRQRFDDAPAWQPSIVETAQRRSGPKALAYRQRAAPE
Format: binding
Settings: SPR; Concentration 1.00E-07 M
value.kind: Response Unit (RU)
The figure you give is taken to be in RU; do not add the unit.

Req: What does the data say about its Response Unit (RU)? Entry: N#Cc1ccc(NC(=O)CC(=O)Nc2ccc(C#N)nc2)cc1
Resp: 5.9

Req: What do we get for N#Cc1ccc(NC(=O)CC(=O)Nc2ccc(Cl)cc2)cc1 ?
Resp: 10.6

Req: // query: N#Cc1ccc(NC(=O)CC(=O)Nc2cccc(Cl)c2)cc1
Resp: 5.9

Req: Please do the same for N#Cc1ccc(NC(=O)CC(=O)Nc2ccc(Br)cc2)cc1 as well.
Resp: 10.1

Req: Follow-up item: N#Cc1ccc(NC(=O)CC(=O)Nc2ccc(Oc3ccccc3)cc2)cc1
Resp: 5.7

###

Biological target: MvfR protein (MvfRC87) (Pseudomonas aeruginosa, UniProt Q9I4X0)
Construct: The MvfRC87 protein purified as in Xiao et. al., 2006; made in house
Type: binding
Settings: SPR; Concentration 3.16E-06 M
Would you mind telling me the reported Response Unit (RU) of each entry?
Please give the number followed by its unit.

Req: Which value of Response Unit (RU) has been reported for Cc1cc(F)ccc1NCC(=O)Nc1ccc(C#N)cc1 in the records?
Resp: 12.6 RU

Req: Next record, please: N#Cc1ccc(NC(=O)CC(=O)Nc2ccc(C(F)(F)F)cc2)cc1
Resp: 27.3 RU

Req: Again, but for CC(C(=O)Nc1ccc(C#N)cc1)C(=O)Nc1ccc(C#N)cc1
Resp: 30.6 RU

Req: Item: N#Cc1ccc(NC(=O)CC(=O)Nc2ccc(C#N)cc2)cc1
Resp: 26.7 RU

Req: Can you check N#Cc1ccc(NC(=O)C(F)C(=O)Nc2ccc(Oc3ccccc3)cc2)cc1 (centres unmarked) next?
Resp: 28.1 RU

###

Test: DMPK of D88 in mice (plasma)
Assay type: in vivo, mouse
Details: male, CD-1, mouse, plasma, sc, 10 mg/kg, SC Injection 10mg/kg; Time 2 h; individual animals
value.kind: concentration at 2 h (ng/mL)
Report the figure in ng/mL without appending any unit label.

Req: State the recorded concentration at 2 h for this entry: N#Cc1ccc(NC(=O)C(F)C(=O)Nc2ccc(Oc3ccccc3)cc2)cc1 (stereo not shown) [D88]
Resp: 443

###

Tested on: MvfR-regulated small molecules in PA14
Assay: Production of HAQs, 2-AA, DHQ and AA in PA14 cultures (LC-MS)
Details: Pseudomonas aeruginosa, PA14, read-out: % Production AA
For each entry below, report its activity at 50 µM value.
Quick reminder: number only, in %, skip the unit.

Req: Observed activity at 50 µM on MvfR-regulated small molecules in PA14 for CC(C(=O)Nc1ccc(C#N)cc1)C(=O)Nc1ccc(C#N)cc1 , please.
Resp: 832

Req: Okay, and N#Cc1ccc(NC(=O)C(F)C(=O)Nc2ccc(Oc3ccccc3)cc2)cc1 (stereo not drawn) ?
Resp: 832

Req: Check N#Cc1ccc(NC(=O)CC(=O)Nc2ccc(Br)cc2)cc1 too.
Resp: 701

Req: Next molecule up: N#Cc1ccc(NC(=O)CC(=O)Nc2ccc(Cl)cc2)cc1
Resp: 739

Req: Proceed to N#Cc1ccc(NC(=O)CC(=O)Nc2ccc(C#N)nc2)cc1
Resp: 777

Req: Would you kindly repeat that for N#Cc1ccc(NC(=O)CC(=O)Nc2ccc(C#N)cc2)cc1 ?
Resp: 531

Req: For N#Cc1ccc(NC(=O)CC(=O)Nc2ccc(C(F)(F)F)cc2)cc1 then?
Resp: 920

Req: Now the same for N#Cc1ccc(NC(=O)CC(=O)Nc2ccc(Oc3ccccc3)cc2)cc1
Resp: 298

Req: Would you mind doing N#Cc1ccc(NC(=O)CC(=O)Nc2ccc(C#N)c(Cl)c2)cc1 as well?
Resp: 774

Hello, the source for this data is paper PMC9428149, in case you need it.
